- Test system: 786-0
- Assay overview: NCI tumour cell line growth inhibition, 48 h
Active and inactive are the calls of the source. Cut-off read from the data, not from the text of the source: active = GI50 up to about 1.1 µM and inactive = higher.
Quick list: GI50 per entry.

[[record]]
compound = "N#CC1(C#N)NC(c2ccccc2)C(C#N)(C#N)NC1c1ccccc1 (centres undefined)"
experimental_target = "786-0"
property_measured = "GI50"
result = "> 100 µM (inactive)"

[[record]]
compound = "COc1cccc2c1C(=O)c1c(O)c3c(c(O)c1C2=O)C[C@@](O)(C(C)=O)C[C@@H]3OC1CC([N+]([O-])(Cc2ccccc2)Cc2ccccc2)C(O)C(C)O1 (some centres undefined)"
experimental_target = "786-0"
property_measured = "GI50"
result = "1.44 µM (inactive)"


Okay, now this compound:
Request: What value of measured GI50 is listed for `Cc1cccc2c(=O)c3c(O)cc4c(c3n(C)c12)C=CC(C)(C)O4` ?
Response: 71.8 µM (inactive)

----------
- System: NCI-H460
- Assay overview: NCI tumour cell line growth inhibition, 48 h
Active and inactive are the calls of the source. Cut-off read from the data, not from the text of the source: active = GI50 up to about 1.1 µM and inactive = higher.
Answer with one of the outcomes given here: active, inactive

# count of solved cases: 5
[[record]]
compound = "Cc1[nH]c2c(C)ccc(C)c2c1CC(=O)O"
assigned_label = "inactive"

[[record]]
compound = "Nc1nc2c(ncn2Cc2ccccc2CO)c(=O)[nH]1"
assigned_label = "inactive"

[[record]]
compound = "CC(=O)c1ccc2c(c1)CC1(C2)Cc2cc3c(cc2C1)C(=O)CC3 (stereo unspecified)"
assigned_label = "active"

[[record]]
compound = "O=C1NC2C(CCO)CC=C[C@H]2c2cc3c(cc21)OCO3 (stereo partly specified)"
assigned_label = "inactive"

[[record]]
compound = "CO/N=C\\c1cc(O)c(O)c(/C=N/OC)c1"
assigned_label = "inactive"


Request: Which result was noted for this compound in the test: `CC1=C(c2cc(C(=O)Nc3ccc(Cl)cc3)nc(S)n2)Sc2ccccc2N1`
Response: inactive

Request: Try `COc1cc2c[n+](C)c3c4cc(OC)c(OC)cc4c(OCCCCCCCCOc4cc5c6cc(OC)c(OC)cc6c[n+](C)c5c5cc(OC)c(OC)cc45)cc3c2cc1OC` next.
Response: inactive

Request: Try `CC(=O)c1cc([N+](=O)[O-])ccc1OCC(=O)O` next.
Response: inactive

Request: Try `CCN(C(=O)/C=C/c1ccco1)c1ccccc1` next.
Response: inactive

Request: Try `CSc1ccc(/C=C2\N=C(c3ccccc3)N(/N=C3\C(=O)Nc4ccccc43)C2=O)cc1` next.
Response: inactive

Request: Try CC1(C)OC2C(CO)OC(n3ccc(N)nc3=O)C2O1 (stereo unspecified) next.
Response: inactive

----------
- Test system: COLO 205
- Assay overview: NCI tumour cell line growth inhibition, 48 h
Calls of active or inactive are those of the source. Rule as the data show it: active = GI50 up to about 1.1 µM and inactive = higher.
Quick list: GI50 per entry.

Request: What value of measured GI50 is listed for NC1=NCCC1(c1ccccc1)c1ccccn1 (stereo not given) ?
Response: > 100 µM (inactive)

Request: Try `CCOC(=O)c1ccc(/N=N\c2ccc(N(CCC#N)CCC#N)cc2C)cc1` next.
Response: > 100 µM (inactive)

Request: Try `Nc1ccccc1Nc1ccccc1C(=O)[O-].Nc1ccccc1Nc1ccccc1C(=O)[O-].[Zn+2]` next.
Response: > 100 µM (inactive)

Request: Try CC1=NN(C(=O)CC(=O)Nc2cccc(C)c2)C(=O)C1/N=N/c1ccc(C(=O)O)cc1 (stereo not given) next.
Response: > 100 µM (inactive)

Request: Try `c1ccc(/N=C2\c3ccsc3/C(=N/c3ccccc3)c3ccsc32)cc1` next.
Response: 2.63 µM (inactive)
